Reference source for all entries: patent US20240043386A1

# Tested on: F508del/F508del CFTR (Homo sapiens, UniProt P13569, DEL508-508)
# Construct: cells isolated from CF patients with the homozygous mutation; endogenous in cells
# Sequence (P13569 with tags, fused parts or gaps DEL508-508): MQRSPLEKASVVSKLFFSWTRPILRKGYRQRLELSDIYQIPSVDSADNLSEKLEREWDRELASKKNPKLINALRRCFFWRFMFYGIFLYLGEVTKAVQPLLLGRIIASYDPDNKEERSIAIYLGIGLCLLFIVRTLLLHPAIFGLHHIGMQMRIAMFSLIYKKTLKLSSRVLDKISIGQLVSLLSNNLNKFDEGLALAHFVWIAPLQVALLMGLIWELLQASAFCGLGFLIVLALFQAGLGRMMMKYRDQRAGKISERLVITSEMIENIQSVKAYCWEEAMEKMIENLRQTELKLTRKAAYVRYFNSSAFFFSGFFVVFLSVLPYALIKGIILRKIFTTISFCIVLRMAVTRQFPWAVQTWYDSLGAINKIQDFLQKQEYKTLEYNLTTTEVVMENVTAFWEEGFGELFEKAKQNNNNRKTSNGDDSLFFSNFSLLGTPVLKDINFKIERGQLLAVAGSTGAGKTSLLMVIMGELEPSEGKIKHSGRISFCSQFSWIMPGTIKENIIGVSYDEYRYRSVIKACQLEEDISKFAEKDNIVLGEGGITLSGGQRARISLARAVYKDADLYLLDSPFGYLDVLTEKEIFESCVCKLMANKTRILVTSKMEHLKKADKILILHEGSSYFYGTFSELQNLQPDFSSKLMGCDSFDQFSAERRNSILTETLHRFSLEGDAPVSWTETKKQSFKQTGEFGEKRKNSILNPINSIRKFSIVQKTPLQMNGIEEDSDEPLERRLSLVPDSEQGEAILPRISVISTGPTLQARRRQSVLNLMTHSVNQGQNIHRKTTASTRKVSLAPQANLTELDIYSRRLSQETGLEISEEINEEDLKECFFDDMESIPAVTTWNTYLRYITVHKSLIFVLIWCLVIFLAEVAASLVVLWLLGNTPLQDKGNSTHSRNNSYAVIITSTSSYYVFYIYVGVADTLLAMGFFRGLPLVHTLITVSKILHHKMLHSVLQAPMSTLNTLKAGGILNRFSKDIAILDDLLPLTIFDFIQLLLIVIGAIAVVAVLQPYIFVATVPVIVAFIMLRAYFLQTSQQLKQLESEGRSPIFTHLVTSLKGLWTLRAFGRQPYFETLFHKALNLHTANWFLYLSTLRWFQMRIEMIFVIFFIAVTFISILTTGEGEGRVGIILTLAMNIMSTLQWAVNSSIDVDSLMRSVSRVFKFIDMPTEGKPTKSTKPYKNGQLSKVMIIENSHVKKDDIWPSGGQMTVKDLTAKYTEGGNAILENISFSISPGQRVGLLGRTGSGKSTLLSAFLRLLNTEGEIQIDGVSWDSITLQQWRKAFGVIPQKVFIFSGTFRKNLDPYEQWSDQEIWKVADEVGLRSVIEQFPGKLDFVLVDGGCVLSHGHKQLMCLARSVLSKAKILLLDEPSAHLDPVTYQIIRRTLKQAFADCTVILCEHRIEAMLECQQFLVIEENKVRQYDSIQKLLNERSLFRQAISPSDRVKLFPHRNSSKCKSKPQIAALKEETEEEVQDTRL
# Measurement description: Trans-Epithelial Current Clamp (TECC) assay using primary human bronchial epithelial cells
# Condition details: primary hBE cells homozygous F508del/F508del; test C2 corrector with co-corrector and potentiator, 18-24 hours at 37° C.; equivalent CFTR current (IEQ)/AUC
Assay readout: EC50 (nM)
Number in nM, nothing else.

{"Compound": "COc1ccc(C)cc1[C@]1(C(=O)NS(=O)(=O)c2cccc3nc(C)ccc23)C[C@@H]1c1cncc(C)n1 (single isomer, unassigned) [Example 46]", "Unit descriptor": "nM", "Assay value": 30.1}
{"Compound": "COc1cnc([C@H]2C[C@@]2(C(=O)NS(=O)(=O)c2cccc3nc(C)ccc23)c2cc(C)ccc2OC)c(OC)n1 [Example 82]", "Unit descriptor": "nM", "Assay value": 52.2}

Documented EC50 of COc1cccc([C@@H]2C[C@]2(C(=O)NS(=O)(=O)c2cccc3nc(C)ccc23)c2cc(C)ccc2OC)c1 (single isomer, unassigned) [Example 27] : 15.7

---

The entries below are paired with their reported Emax (% Dual).
# Tested on: F508del/F508del CFTR (Homo sapiens, UniProt P13569, DEL508-508)
# Construct: cells isolated from CF patients with the homozygous mutation; endogenous in cells; host or cells: primary human bronchial epithelial (hBE) cells from CF patients homozygous for F508del
# Measurement description: Trans-Epithelial Current Clamp (TECC) assay using primary human bronchial epithelial cells
# Format: cell-based
# Condition details: maximum percent activity relative to positive control (co-corrector 0.15 μM + potentiator 0.45 μM = 100%); primary hBE cells F508del/F508del
Number in % Dual, nothing else.

{"Compound": "COc1ccc(C)cc1[C@]1(C(=O)NS(=O)(=O)c2cccc3nc(C)ccc23)C[C@@H]1c1cncc(F)c1 (single isomer, unassigned)", "Emax (% Dual)": 355}

Item COc1ccc(C)cc1[C@@]1(C(=O)NS(=O)(=O)c2cccc3nc(C)ccc23)C[C@H]1c1cnc(C)cn1 (single isomer, unassigned) was tested on F508del/F508del CFTR (Homo sapiens, UniProt P13569, DEL508-508); the reported Emax (% Dual) is 138

Item COc1cncc([C@H]2C[C@@]2(C(=O)NS(=O)(=O)c2cccc3nc(C)ccc23)c2cc(C)ccc2OC)n1 (single isomer, unassigned) was tested on F508del/F508del CFTR (Homo sapiens, UniProt P13569, DEL508-508); the reported Emax (% Dual) is 402

Item "COc1ccc(C)cc1[C@]1(C(=O)NS(=O)(=O)c2cccc3nc(C)ccc23)C[C@@H]1c1cc(F)cnc1OC" was tested on F508del/F508del CFTR (Homo sapiens, UniProt P13569, DEL508-508); the reported Emax (% Dual) is 215

Item CCOc1ncccc1[C@@H]1C[C@]1(C(=O)NS(=O)(=O)c1cccc2nc(C)ccc12)c1cc(C)ccc1OC (single isomer, unassigned) was tested on F508del/F508del CFTR (Homo sapiens, UniProt P13569, DEL508-508); the reported Emax (% Dual) is 230

Item COc1ccc(C)cc1[C@@]1(C(=O)NS(=O)(=O)c2cccc3nc(C)ccc23)C[C@H]1c1ccc(C(C)C)nc1OC (racemic) [Example 78] was tested on F508del/F508del CFTR (Homo sapiens, UniProt P13569, DEL508-508); the reported Emax (% Dual) is 282
